Entry source: patent US20220146526A1

Assay: GC/MS of blood plasma sample: time from blood collection to centrifugation (Table A)
Assay type: physicochemical, human
Details: detection intensity, blood collection to centrifugation, after 4 hours vs 15 minutes
Protocol: At room temperature, 5 mL of blood from a healthy subject was taken into a blood-collecting vessel containing EDTA, and the blood-collecting vessel was inverted for mixing, then cooled, and allowed to stand at 4° C. […]

compound | Increase or decrease
NC(=O)NC1NC(=O)NC1=O (stereo not shown) [Allantoin] | Decrease
O=C(O)[C@H](O)[C@H](O)[C@H](O)CO [Ribonic acid] | Decrease
O=C(O)C=C(CC(=O)O)C(=O)O [Aconitic acid] | Decrease
O[C@@H]1[C@@H](O)[C@@H]2OC[C@@H](O2)[C@H]1O [1,6-Anhydroglucose] | Increase
Oc1ccccn1 [2-Hydroxypyridine] | Decrease
O=C(O)c1cccnc1C(=O)O [Quinolinic acid] | Increase

====

test: GC/MS of blood plasma sample: time from blood collection to centrifugation (Table A); format: physicochemical, human; details: different from individual to individual, individuals with decrease, relative to 1 at 15 minutes, collection to centrifugation, after 4 hours
# Rate of increase or decrease (second value, decrease) values compiled below
assay.endpoint: Rate of increase or decrease (second value, decrease)

compound | endpoint.result
O=C(CO)[C@H](O)[C@H](O)CO | 0.66
O=C(O)C(=O)O | 0.32
CC(=O)N[C@@H](CO)C(=O)O | 0.66
CCC(=O)C(=O)O | 0.64
OC[C@H]1O[C@@](CO)(O[C@H]2O[C@H](CO)[C@@H](O)[C@H](O)[C@H]2O)[C@@H](O)[C@@H]1O | 0.69
O=c1ccn([C@@H]2O[C@H](CO)[C@@H](O)[C@H]2O)c(=O)[nH]1 | 0.48
O=C(CO)[C@H](O)[C@@H](O)[C@H](O)CO | 0.67
O=c1[nH]c(=O)c2[nH]cnc2[nH]1 | 0.49
O=C(O)/C=C\C(=O)O | 0.47
O=P(O)(O)OCC(O)CO (stereo not shown) [Glycerol-3-phosphate] | 0.32
OC[C@@H](O)[C@@H](O[C@@H]1O[C@H](CO)[C@H](O)[C@H](O)[C@H]1O)[C@H](O)[C@@H](O)CO | 0.22
N[C@@H](CS(=O)O)C(=O)O | 0.32
O=C[C@H](O)[C@@H](O)[C@H](O)CO | 0.69

====

experiment: GC/MS of serum sample: number of times of freezing and thawing (Table I); type: physicochemical, human; details: detection intensity; serum, GC/MS; freezing and thawing 4 times vs 2 times

compound | Increase or decrease
O=C(O)[C@@H]1CC(O)CN1 (stereo partly drawn) [4-Hydroxyproline] | Increase
O=C(O)CCCc1ccccc1 | Increase
CCCCCCC(N)C(=O)O (stereo not drawn) | Increase
O=C(O)/C=C\C(=O)O | Increase
Nc1ncnc2c1ncn2[C@@H]1O[C@H](CO)[C@@H](O)[C@H]1O | Decrease
O=C[C@H](O)[C@H](O)[C@H](O)CO | Increase
O=C(O)C(O)Cc1ccccc1 (stereo not drawn) | Decrease
O=C(O)[C@@H](O)[C@H](O)CO | Decrease
O=C(CO)[C@H](O)[C@H](O)[C@H](O)CO | Decrease
O[C@@H]1[C@@H](O)[C@@H]2OC[C@@H](O2)[C@H]1O [1,6-Anhydroglucose] | Increase
CC(C)(CO)[C@@H](O)C(=O)NCCC(=O)O | Increase
OC[C@H]1O[C@@H](O[C@H]2[C@H](O)[C@@H](O)C(O)O[C@@H]2CO)[C@H](O)[C@@H](O)[C@H]1O (stereo partly drawn) | Increase
CC(=O)NCCCC[C@H](N)C(=O)O | Decrease
OB(O)O | Decrease
O=CC(=O)O | Decrease
O=C1O[C@H](CO)[C@@H](O)[C@H]1O | Increase
N[C@@H](CS(=O)O)C(=O)O | Decrease
CCCCCCCC/C=C\CCCCCCCC(N)=O [Oleamide] | Increase
O=C(O)C(=O)O | Decrease
O=C(CO)[C@H](O)CO | Decrease
NCCc1ccc(O)c(O)c1 | Decrease
CC(=O)CC(=O)O | Increase
O=C(O)CCO [3-Hydroxypropionic acid] | Decrease
Oc1ccccn1 [2-Hydroxypyridine] | Decrease
